target: STAT3 127-688 (UniProt P40763 127-688); assay: competition (fluorescence polarization); competitor vs 20 nM Bodipy-DNA N1, 480 nM protein; 24 hr, 4 C; FP: 20 nM Bodipy-DNA, 480 nM STAT3 127-688, 25 mM Tris pH 8.5 (protein purification and DNA annealing buffer; full assay buffer not in material), NaCl < 200 uM; conditions: protein: recombinant; blunt
Sequence (P40763 127-688): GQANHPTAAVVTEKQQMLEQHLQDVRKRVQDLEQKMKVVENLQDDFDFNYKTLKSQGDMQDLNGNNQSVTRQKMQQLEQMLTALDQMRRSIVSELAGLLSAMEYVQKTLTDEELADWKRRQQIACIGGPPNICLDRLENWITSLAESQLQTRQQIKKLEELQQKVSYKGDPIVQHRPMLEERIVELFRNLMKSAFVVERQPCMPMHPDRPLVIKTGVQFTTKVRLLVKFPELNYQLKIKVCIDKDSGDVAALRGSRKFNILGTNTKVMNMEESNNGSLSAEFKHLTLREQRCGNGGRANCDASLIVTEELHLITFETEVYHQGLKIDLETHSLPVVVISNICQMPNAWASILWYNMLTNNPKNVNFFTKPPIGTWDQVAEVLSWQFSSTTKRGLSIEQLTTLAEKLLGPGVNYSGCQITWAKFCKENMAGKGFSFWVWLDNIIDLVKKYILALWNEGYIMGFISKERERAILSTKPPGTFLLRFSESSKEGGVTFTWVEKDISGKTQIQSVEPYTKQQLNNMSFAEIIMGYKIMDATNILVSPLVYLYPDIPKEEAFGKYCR
assay endpoint: pIC50
Hey, just a heads up that pIC50 is the negative log base 10 of the concentration in molar.

Ask: Which value of pIC50 has been reported for unlabelled consensus DNA 12-mer (dsDNA) DNA 1: ATTTCCCGTAAA DNA 2: TTTACGGGAAAT in the records?
Result: 6.52
